Each recorded value in this set is attributed to paper PMC6908506.

Molecular target: T1, FMDV O/Mya/98 146S antigen (Foot-and-mouth disease virus serotype …, UniProt G8JKC2, strain)
T1 construct: also called purified virus antigen; copies: + + +
Assay: ELISA
Details: both partners purified
ASSAY_METRIC: binding result

BINDER	ASSAY_METRIC	RESULT
E11 (antibody, V domains shown) VH: QVQLRESGPSLVKPSQTLSLTCTVSGFSLNSYAVTWVRQAPGKALECLGSIGSRGGTGYNQALKSRLSITKNNSKSQVSLSVRSVTPEDTATYYCVKESGSGYWDDACWGFGVGDDYVDTWGHGLLVTVST VL: QAVLTQPSSVSGSLGQRVSITCSGSSSNVGRGNYVSWFQQLPGAAPRTLIYAATSRASGVPDRFSGSRSGNTATLTISSLQAEEEAYYFCAVYDTSSKAAVFGSGTTLTVL	binding result	binds
B51 (antibody, V domains shown) VH: QVQLRESGPSLVKPSQTLSLTCTVSGFSLSSYGVIWVRQAPGKALECLGQITTGGITGYNPALKSRLSITKDNSEGQVSLSLSSVTTEDTATYYCVKEHDNYGDFSGGCLHAAYVDTWGQGLLVTVSS VL: QAVLTQPSSVSGSLGQRVSITCSGSSSNIGLYAVGWYQQVPGSGLRSIIYSSRSRPSGVPDRFSGSKSGNTATLTISSLQAEDEADYFCVAYDSSSDSAIFGSGTTLTVL	binding result	binds
